FYI, the data here is from patent US20250352529A1.

system: HT-29 human CRC cells; experiment: WST-1 cell proliferation assay, HT-29 cells; assay type: cell-based; conditions: HT-29 cells (CHRM1:3-low), 5 days; read-out: half-maximal effective concentration (EC50) for inhibition of CRC cell proliferation
measured_metric: pEC50
The quantity pEC50 is defined as the negative base-10 logarithm of the molar concentration.

Given C[N+](C)(C)CC#CCOC(=O)Nc1cccc(Cl)c1.[Cl-] [McN-A-343] , state its recorded pEC50. 3.26

---

Tested on: H508 human CRC cells
Experiment: WST-1 cell proliferation assay, H508 cells
Format: cell-based
Settings: H508 cells (CHRM1:3-low), 5 days; read-out: half-maximal effective concentration (EC50) for inhibition of CRC cell proliferation
Protocol: FIG. 6A) Treating H508 cells for 5 days with carbachol (carb), a non-selective muscarinic receptor agonist stimulates cell proliferation measured using the WST-1 Cell Proliferation Assay (Roche). Cont, control; Carb, carbachol. […] Human colon cancer cell lines (H508, HCT116) were grown in complete culture medium in a 37° C. incubator with 5% CO2 and sub-cultured weekly. […] Cell proliferation and cytotoxicity were measured using the WST-1 and LDH colorimetric assays, respectively. […]
measured_metric: EC50 (µM)
# output: bare number, implied unit µM

Requested read-out EC50, target or system H508 human CRC cells, entry C[N+](C)(C)CC#CCOC(=O)Nc1cccc(Cl)c1.[Cl-] [McN-A-343] 137
